All figures here come from ChEMBL document CHEMBL3885881.

species on record: Rattus norvegicus; assay: DrugMatrix - Regimen: Daily Repeat; format: toxicity, organism-based, Sprague-Dawley; set-up: regimen Daily Repeat, gender Male, age 6-8 weeks; conditions: in vivo, po, 2000 mg/kg, 72 h, tissue Blood, route oral GAVAGE, dose level High, time 3 day, vehicle .5 % CMC
assayReadout: LEUKOCYTE COUNT (x10E3/uL)
Numbers only, in x10E3/uL.

Here's what some known entries look like.
- molecule: "CC(=O)O[C@]1(C(C)=O)CC[C@H]2[C@@H]3C=C(Cl)C4=CC(=O)CC[C@]4(C)[C@H]3CC[C@@]21C [CHLORMADINONE ACETATE]"
  LEUKOCYTE COUNT (x10E3/uL): 11.27
- molecule: "CC(C)[C@H](N)C(=O)OCCOCn1cnc2c(=O)[nH]c(N)nc21"
  LEUKOCYTE COUNT (x10E3/uL): 9.97
- molecule: "NCC(=O)O"
  LEUKOCYTE COUNT (x10E3/uL): 12.17

Below: the item to evaluate.
**Q:** Dear colleague, I am looking for the recorded LEUKOCYTE COUNT of the following molecule: NCCCC[C@H](N[C@@H](CCc1ccccc1)C(=O)O)C(=O)N1CCC[C@H]1C(=O)O [LISINOPRIL ANHYDROUS]
**A:** 12.73
